# Tested on: Staphylococcus aureus 447
# Assay Info: MIC, standard broth micro-dilution assay, SA 447
# Assay type: cell-based
Record form. Attribute: minimal inhibitory concentration (MIC), SA 447. Fill in for each entry.
Answers are plain numbers.

Below, each entry is followed by its recorded minimal inhibitory concentration (MIC), SA 447 result.
CCCCCCNC(CC(C)C)C(=O)NC1C(=O)NC(CC(N)=O)C(=O)NC2C(=O)NC3C(=O)NC(C(=O)NC(C(=O)O)c4cc(O)cc(O)c4-c4cc3ccc4O)C(OC3CC(C)(N)C(O)C(C)O3)c3ccc(c(Cl)c3)Oc3cc2cc(c3OC2OC(CO)C(O)C(O)C2OC2CC(C)(NCCCCCC)C(O)C(C)O2)Oc2ccc(cc2Cl)C1O (stereo not shown)    1
CC1OC(OC2c3ccc(c(Cl)c3)Oc3cc4cc(c3OC3OC(CO)C(O)C(O)C3OC3CC(C)(NCc5ccc(-c6ccccc6)cc5)C(O)C(C)O3)Oc3ccc(cc3Cl)C(O)C(NC(=O)C3CCCN3)C(=O)NC(CC(N)=O)C(=O)NC4C(=O)NC3C(=O)NC2C(=O)NC(C(=O)O)c2cc(O)cc(O)c2-c2cc3ccc2O)CC(C)(N)C1O (stereo not shown) [Example 12]    0.5
CC1OC(OC2C(Oc3c4cc5cc3Oc3ccc(cc3Cl)[C@@H](O)[C@@H](NC(=O)c3ccc(-c6ccccc6)cc3)C(=O)N[C@@H](CC(N)=O)C(=O)N[C@H]5C(=O)N[C@H]3C(=O)NC(C(=O)N[C@H](C(=O)O)c5cc(O)cc(O)c5-c5cc3ccc5O)[C@H](OC3CC(C)(N)C(O)C(C)O3)c3ccc(c(Cl)c3)O4)OC(CO)C(O)C2O)CC(C)(N)C1O (stereo partly shown) [Example 1, N^1-(p-phenylbenzoyl)desleucylA82846B]    0.25

Batch of 6 molecules: report minimal inhibitory concentration (MIC), SA 447 for each.
1. CC(C)CC(N)C(=O)NC1C(=O)NC(CC(N)=O)C(=O)NC2C(=O)NC3C(=O)NC(C(=O)NC(C(=O)O)c4cc(O)cc(O)c4-c4cc3ccc4O)C(OC3CC(C)(N)C(O)C(C)O3)c3ccc(c(Cl)c3)Oc3cc2cc(c3OC2OC(CO)C(O)C(O)C2OC2CC(C)(NCc3ccc(-c4ccccc4)cc3)C(O)C(C)O2)Oc2ccc(cc2Cl)C1O (stereo not shown) [Example 27]
2. CC1OC(OC2C(Oc3c4cc5cc3Oc3ccc(cc3Cl)[C@@H](O)[C@@H](NC(=O)[C@@H](Cc3ccc(Cl)cc3)NC(=O)OC(C)(C)C)C(=O)N[C@@H](CC(N)=O)C(=O)N[C@H]5C(=O)N[C@H]3C(=O)NC(C(=O)N[C@H](C(=O)O)c5cc(O)cc(O)c5-c5cc3ccc5O)[C@H](OC3CC(C)(N)C(O)C(C)O3)c3ccc(c(Cl)c3)O4)OC(CO)C(O)C2O)CC(C)(N)C1O (stereo partly shown)
3. CC1OC(OC2c3ccc(c(Cl)c3)Oc3cc4cc(c3OC3OC(CO)C(O)C(O)C3OC3CC(C)(NCc5ccc(-c6ccccc6)cc5)C(O)C(C)O3)Oc3ccc(cc3Cl)C(O)C(NC(=O)C(Cc3c[nH]c5ccccc35)NC(=O)OC(C)(C)C)C(=O)NC(CC(N)=O)C(=O)NC4C(=O)NC3C(=O)NC2C(=O)NC(C(=O)O)c2cc(O)cc(O)c2-c2cc3ccc2O)CC(C)(N)C1O (stereo not shown)
4. CC(C)CC(N)C(=O)NC1C(=O)NC(CC(N)=O)C(=O)NC2C(=O)NC3C(=O)NC(C(=O)NC(C(=O)O)c4cc(O)cc(O)c4-c4cc3ccc4O)C(OC3CC(C)(N)C(O)C(C)O3)c3ccc(c(Cl)c3)Oc3cc2cc(c3OC2OC(CO)C(O)C(O)C2OC2CC(C)(NCc3ccc(-c4ccccc4)cc3)C(O)C(C)O2)Oc2ccc(cc2Cl)C1O (stereo not shown) [Example 13]
5. CC1OC(OC2c3ccc(c(Cl)c3)Oc3cc4cc(c3OC3OC(CO)C(O)C(O)C3OC3CC(C)(NCc5ccc(-c6ccc(Cl)cc6)cc5)C(O)C(C)O3)Oc3ccc(cc3Cl)C(O)C(NC(=O)CCCCCCNC(=O)OC(C)(C)C)C(=O)NC(CC(N)=O)C(=O)NC4C(=O)NC3C(=O)NC2C(=O)NC(C(=O)O)c2cc(O)cc(O)c2-c2cc3ccc2O)CC(C)(N)C1O (stereo not shown)
6. CC1OC(OC2c3ccc(c(Cl)c3)Oc3cc4cc(c3OC3OC(CO)C(O)C(O)C3OC3CC(C)(NCc5ccc(-c6ccccc6)cc5)C(O)C(C)O3)Oc3ccc(cc3Cl)C(O)C(NC(=O)C(N)Cc3ccc(Cl)cc3)C(=O)NC(CC(N)=O)C(=O)NC4C(=O)NC3C(=O)NC2C(=O)NC(C(=O)O)c2cc(O)cc(O)c2-c2cc3ccc2O)CC(C)(N)C1O (stereo not shown) [Example 33]

1: 1; 2: 0.25; 3: 2; 4: 1; 5: 2; 6: 1
